experiment: qHTS profiling for inhibitors of Plasmodium falciparum (3D7) proliferation (AID 743322);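 note: infected erythrocytes exposed to compound for 72 h before lysis; 100% = DMSO vehicle wells and 0% = 0.29 µM artemisinin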; details: P. falciparum 3D7 proliferation; at 28.7 µM (top of the series)
MEASUREMENT NAME: remaining parasite growth % (stronger effect = lower value)
Please provide the amount together with its unit, number first.

Exam item: // query remaining parasite growth % (stronger effect = lower value) value for entry CC(C)(O)CCc1ccc(OCc2cc(-c3cccc(OC(F)F)c3)c3ncccc3c2)cc1
Marked response: 37.5%

Exam item: // query remaining parasite growth % (stronger effect = lower value) value for entry C=C1C(=CC=C2CCCC3(C)[C@@H]([C@H](C)C=CC=CC(O)(CC)CC)CC[C@@H]23)C[C@@H](O)C[C@@H]1O (some centres undefined)
Marked response: 65.1%

Exam item: // query remaining parasite growth % (stronger effect = lower value) value for entry Nc1nc(Nc2ccc(S(N)(=O)=O)cc2)nn1C(=O)c1c(F)cccc1F
Marked response: 14.8%

----------
test system: C2A; assay: qHTS profiling for inhibitors of Plasmodium falciparum proliferation (AID 504749); note: nearly all actives have a fitted effect of over 60% in size; details: P. falciparum in erythrocytes, SYBR Green DNA, 72 h; series mostly up to 28.7 µM
Results filed as inconclusive are left out. Activity calls are given as the source filed them. Calls come from the whole dose curve; as a rule, active = well fitted inhibition curve with a large enough effect; inconclusive = small, poorly fitted or top-dose-only effect; inactive = flat fitted curve, though single readings scatter.
Write down the outcome that applies. Available outcomes: class 1 (active), class 0 (inactive)

Nc1ccn([C@@H]2CS[C@H](CO)O2)c(=O)n1 :: class 0
O=c1[nH]c(=O)n(C2CCCO2)cc1F (stereo not drawn) :: class 0
CC=CC1=C(C(=O)O)N2C(=O)[C@H](NC(=O)[C@H](N)c3ccc(O)cc3)[C@@H]2SC1 :: class 0
O=C(O)CO.[NH2-].[NH2-].[Pt+2] :: class 0
COc1c(N2C[C@@H]3CCCN[C@H]3C2)c(F)cc2c(=O)c(C(=O)O)cn(C3CC3)c12 :: class 0
CCC1=C[C@@H]2CN(C1)Cc1c([nH]c3ccccc13)[C@@](C(=O)OC)(c1cc3c(cc1OC)N(C)[C@@H]1[C@@](O)(C(=O)OC)[C@H](OC(C)=O)[C@]4(CC)C=CCN5CC[C@]31[C@@H]54)C2 :: class 1
Nc1ccc(S(=O)(=O)Nc2ncccn2)cc1 :: class 0

Consider the record given below.
Exam item: I would be grateful if you could indicate the recorded call for COC(=O)C1=C(C)NC(C)=C(C(=O)OCCN2CCN(C(c3ccccc3)c3ccccc3)CC2)C1c1cccc([N+](=O)[O-])c1 (stereo not drawn) .
Marked response: class 1

----------
assay: Quantitative High-Throughput drug screen in 47 multiple myeloma cell lines against the NCATS MIPE library collection: OCIMY5_PLB cell viability assay (AID 1918988); conditions: OCI-MY5 myeloma viability, ATP luminescence, 48 h; series mostly up to 45.8 µM; note: nearly all actives have a fitted effect of over 65% in size
Records with an inconclusive call do not appear. Calls of active or inactive are those of the source. Calls follow the shape of the dose curve; as a rule, active = well fitted cell-killing curve with a large enough effect; inconclusive = small, poorly fitted or top-dose-only effect, or effect the other way; inactive = no such curve, though single readings can be large or run the other way.
Write down the outcome that applies. Available outcomes: 1 (yes) (active), 0 (no) (inactive)

Example results:
COc1cccc2nc(-c3cccs3)nc(NN3C(=O)C=C(C)C3=O)c12 :: 1 (yes)
Cn1c(CNc2ccc(C(=N)N)cc2)nc2cc(C(=O)N(CCC(=O)O)c3ccccn3)ccc21 :: 0 (no)
CCN(CC)CCCCNc1ncc2cc(-c3cc(OC)cc(OC)c3)c(NC(=O)NC(C)(C)C)nc2n1 :: 1 (yes)
COC(=O)Nc1ccc(-c2nc(N3CCOCC3)c3cnn(C4CCN(Cc5cccnc5)CC4)c3n2)cc1 :: 1 (yes)
Cc1cc(Nc2cc(N3CCN(C)CC3)nc(C=Cc3ccccc3)n2)n[nH]1 :: 1 (yes)
COc1ccc2c(c1)CC[C@@H](CN(C)CC(=O)O)[C@H]2c1ccccc1 :: 1 (yes)
CN(c1ncccc1CNc1nc(Nc2ccc3c(c2)CC(=O)N3)ncc1C(F)(F)F)S(C)(=O)=O :: 1 (yes)
CC(C)c1cnn2c(NCc3ccccc3)cc(N[C@@H](CO)[C@H](O)CO)nc12 :: 1 (yes)

Exam item: I would be grateful if you could indicate the recorded call for Clc1ccc2ncc(-c3cccc(NC4CNC4)n3)n2c1 .
Marked response: 1 (yes)

Exam item: I would be grateful if you could indicate the recorded call for C1=CCOCc2cc(ccc2OCCN2CCCC2)Nc2nccc(n2)-c2cccc(c2)OCC1 .
Marked response: 1 (yes)
